The entries below come with measured growth values attached.
- Tested on: SF-295 CNS
- Experiment summary: NCI-60 one-dose screen, 48 h (100 = growth as untreated, 0 = no growth, -100 = all killed)
- Experimental setup: 10 µM unless noted
About 83,000 compounds went through this panel and 20% of them were active in at least one assay; those are over-represented in the sample as a whole.
Give the value in % but do not write % after it.

Compound: C=CC(=O)NCCOc1cccc(Nc2cc(NCCCNC(=O)C3CCC3)c(Br)cn2)c1
growth / %: 2.75
--
Compound: O=C(NCc1ccccc1O)c1cccc2ccccc12
growth / %: 87.3
--
Compound: Nc1ncnc2c1c(-c1ccc(Oc3ccccc3)cc1)nn2CC1SSCC1O (stereo unspecified)
growth / %: 73
--
Compound: COc1cccc2c(N=NC(=O)c3ccc(S(N)(=O)=O)cc3)c(O)[nH]c12
growth / %: 102

Return value of growth for input `CCOC(=O)c1n[nH]n2c1nc(=O)c1cnn(C)c12` , no commentary. 108

In one line, give reported growth of the entry CCN1C(=O)N(CC)C2C1NN=c1s/c(=C3\C(=O)N(CCc4ccccc4)c4ccccc43)c(=O)n12 (stereo unspecified) . 9.5

Identify the reported growth for the following entry. COc1ccc(NC(=O)c2sc3nc(C)c(C(O)c4ccccc4)cc3c2N)cc1 (stereo unspecified) 23.1
